- measurement-target: Eukaryotic translation initiation factor 4E (Mus musculus)
- Sequence (P63073 whole entry): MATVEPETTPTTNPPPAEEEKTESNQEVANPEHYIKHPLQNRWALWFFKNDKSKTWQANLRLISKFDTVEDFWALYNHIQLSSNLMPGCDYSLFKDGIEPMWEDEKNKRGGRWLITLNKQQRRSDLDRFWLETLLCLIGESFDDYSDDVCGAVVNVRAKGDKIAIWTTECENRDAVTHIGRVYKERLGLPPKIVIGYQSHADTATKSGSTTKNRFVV
- assay-summary: blockers of eIF4G binding by eIF4E – biochemical, TR-FRET, dose response (AID 855);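 further: potency for disrupting eIF4E binding to eIF4GI seen as loss of FRET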
- Assay type: functional
Calls of active or inactive are those of the source.
property-measured: IC50

Query :: What measured IC50 goes with CCn1c(SCC(=O)Nc2ccccc2OC)nc2ccccc2c1=O ?
Result :: > 64 µM (inactive)

Query :: // same read-out, input: Nc1nnc(CC(=O)N2CCCCC2)s1
Result :: > 64 µM (inactive)

Query :: COc1ccccc1/C=C/C(=O)c1c(O)nc(C)c2c1CCCC2 ?
Result :: 50 µM (inactive)

Query :: Also Cc1nc(C(C)(C)O)n(-c2ccccc2)n1 , if possible.
Result :: > 64 µM (inactive)

Query :: Entry to check: O=[N+]([O-])c1cccc(-c2ccc(/C=N/n3c(S)nnc3-c3ccccc3)o2)c1
Result :: > 64 µM (inactive)

---

Can you tell me AC50 for the items I'm about to list?
- measurement-target: Paired box protein Pax-8 (Homo sapiens, UniProt Q06710)
- Sequence (Q06710 whole entry): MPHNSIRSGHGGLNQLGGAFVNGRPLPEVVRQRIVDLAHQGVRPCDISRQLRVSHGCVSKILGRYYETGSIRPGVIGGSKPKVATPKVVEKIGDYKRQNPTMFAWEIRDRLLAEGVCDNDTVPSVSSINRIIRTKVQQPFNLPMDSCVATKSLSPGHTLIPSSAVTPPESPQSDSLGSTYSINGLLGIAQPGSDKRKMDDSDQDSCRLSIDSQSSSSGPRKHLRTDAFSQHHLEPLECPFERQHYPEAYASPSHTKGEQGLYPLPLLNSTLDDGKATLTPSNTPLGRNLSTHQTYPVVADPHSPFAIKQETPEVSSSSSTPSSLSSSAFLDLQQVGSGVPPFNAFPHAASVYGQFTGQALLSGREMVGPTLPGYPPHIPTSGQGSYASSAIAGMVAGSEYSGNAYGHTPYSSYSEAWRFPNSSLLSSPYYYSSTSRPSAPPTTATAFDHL
- assay-summary: PAX8 transcriptional activity inhibition in RMG-I – RMG-I cells, luciferase, cherry-pick, dose response (AID 687027);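 further: luciferase reporter driven by Pax8 target thyroperoxidase promoter measured by SteadyGlo luminescence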
- Type: functional, cell-based
Activity calls are given as the source filed them.

Query :: Consider the molecule O=C(Nc1cccc(NC(=O)c2ccccc2Cl)c1)c1ccc([N+](=O)[O-])o1 and give its measured AC50.
Result :: 2480 nM (active)

Query :: Follow-up item: C[C@@H]1CN([C@@H](C)CO)C(=O)c2c(c3ccccc3n2C)-c2ccccc2CO[C@H]1CN(C)S(=O)(=O)c1ccccc1F
Result :: 5880 nM (active)

Query :: Another molecule to check: CN1CCc2c(sc(NC(=O)c3ccc([N+](=O)[O-])o3)c2C(N)=O)C1
Result :: 1670 nM (active)

Query :: And the next one, Cc1cc(C)c2c(N)c(C(=O)Nc3ncc(C)s3)sc2n1 ?
Result :: 2920 nM (active)

Query :: Can you check COc1ccc(CC2C(=O)NC(C)C(=O)N(C)C3Cc4ccc(cc4)Oc4cc(ccc4O)CC(C(=O)NC(C)C(=O)NC(C)C(=O)N2C)N(C)C3=O)cc1 (stereo not drawn) next?
Result :: < 260 nM (active)

Query :: Same for COc1ccccc1C#Cc1ccc2c(c1)O[C@@H](CN(C)Cc1cncnc1)[C@H](C)CN([C@H](C)CO)S2(=O)=O
Result :: 2160 nM (active)

Query :: Would you kindly repeat that for Cc1cccc(S(=O)(=O)N2C[C@@H](O)COC[C@@H]3O[C@@H](CC(=O)Nc4ccc(-c5ccccc5)cc4)CC[C@H]32)c1 ?
Result :: 10700 nM (active)

Query :: Entry COc1ccccc1C#Cc1ccc([C@H]2[C@H](C#N)N(C(=O)C3CCC3)[C@H]2CO)cc1 please
Result :: 5550 nM (active)

---

The source made the active and inactive calls.
# IC50 per entry for Estrogen receptor (Homo sapiens)

Query :: Can you look up the measured IC50 of Cn1cc(C(=O)NC2CCCCCC2)c(=O)c2cc(S(=O)(=O)N3CCCC3)ccc21 for me?
Result :: > 50 µM (not active)

Query :: Follow-up entry: Cc1ccc2[nH]c(/C(C#N)=C\c3ccc(N4CCCCC4)c([N+](=O)[O-])c3)nc2c1
Result :: 4.23 µM (active)

Query :: Lookup CC(=O)c1ccc(NCC(=O)N2CCN(c3ccccc3)CC2)cc1
Result :: 5.02 µM (active)

Query :: Proceed to CSc1ncc2c(n1)-c1cc(C)ccc1SC2
Result :: > 50 µM (not active)

Query :: How about O=C(NCc1ccc(Cl)cc1)c1cc(-c2cccs2)on1 ?
Result :: > 50 µM (not active)

Query :: What do you have for COc1ccc(OC)c(NC(=O)c2cc(-c3ccc(C)cc3O)[nH]n2)c1 ?
Result :: 22.1 µM (active)
